The reported numbers originate from patent US20120165319A1.

# System: IL-1β, human whole blood
# assay-remarks: Whole blood assay for IL-1β production
# Assay type: cell-based
# test-parameters: Homo sapiens, * = values obtained upon reassay; read-out: Whole human blood IC50
measured-attribute: IC50 (µM)

Challenge: # query: IC50 of entry CC(C)C(=O)Nc1ccc(C(=O)N[C@H]2CCC(=O)N3CCC[C@@H](C(=O)N[C@H](C=O)CC(=O)O)N3C2=O)cc1 [Compound 484]
Response given: 5

Challenge: Can you handle CC(C)OC1OC(=O)C[C@@H]1NC(=O)[C@@H]1CCCN2C(=O)CC[C@H](NC(=O)c3ccccc3)C(=O)N12 (stereo partly drawn) [Compound 2100a] next?
Response given: 0.85

Challenge: Now give it for O=C[C@H](CC(=O)O)NC(=O)[C@@H]1CCCN2C(=O)CC[C@H](NC(=O)c3ccc(Oc4ccccc4)cc3)C(=O)N12 [Compound 443] too.
Response given: 1.5

1. CNC(=O)Nc1ccc(C(=O)N[C@H]2CCC(=O)N3CCC[C@@H](C(=O)N[C@H](C=O)CC(=O)O)N3C2=O)cc1 [Compound 489]
2. O=C[C@H](CC(=O)O)NC(=O)[C@@H]1CCCN2C(=O)CC[C@H](NC(=O)c3ccccc3Cl)C(=O)N12 [Compound 406]
Challenge: Lower value of IC50 belongs to which: 1 or 2 ? Pick one and reply with its label.
Response given: 2
